# Tested on: KM12
# measurementNotes: NCI tumour cell line growth inhibition, 48 h
Activity calls are given as the source filed them. Cut-off read from the data, not from the text of the source: active = GI50 up to about 1.1 µM and inactive = higher.
measurementName: GI50

[
  {
    "molecule": "N=C1N(c2ccccc2)C(=O)C23CCCC2C13N1CCOCC1 (centres undefined)",
    "resultValue": "> 100 µM (inactive)"
  },
  {
    "molecule": "C=C1CC[C@@H]2C(C)(C)C(O)CCC2(C)C1COc1ccc2ccc(=O)oc2c1 (some centres undefined)",
    "resultValue": "15.6 µM (inactive)"
  },
  {
    "molecule": "CC1(C)C2CCC3=C(CCC4(C)C5C[C@](C)(C(=O)O)CC[C@]5(C)CC[C@]34C)[C@@]2(C)CC[C@@H]1O (some centres undefined)",
    "resultValue": "15.4 µM (inactive)"
  }
]

Exercise: GET /values?readout=GI50&item= CC(=O)Oc1cc(-c2oc3cc(OC(C)=O)c(C4OC(CO)C(O)C(O)C4O)c(OC(C)=O)c3c(=O)c2O)c(OC(C)=O)cc1O (centres undefined)
Solution: > 100 µM (inactive)

* * *

# System: SW-620
# measurementNotes: NCI tumour cell line growth inhibition, 48 h
The source made the active and inactive calls. No stated cut-off is given here; in the data, active = GI50 up to about 1.1 µM and inactive = higher.
The entries below are paired with their reported GI50.

[
  {
    "molecule": "Cc1ccc([N+](=O)[O-])cc1NC1=NCCO1",
    "targetSystem": "SW-620",
    "GI50": "> 100 µM (inactive)"
  },
  {
    "molecule": "COc1ccc(C2=Nn3c(nnc3-c3ccccc3)S/C2=C\\c2ccc(-c3ccc([N+](=O)[O-])cc3)o2)cc1",
    "targetSystem": "SW-620",
    "GI50": "24.2 µM (inactive)"
  },
  {
    "molecule": "O=C1c2ccccc2-c2c1c(-c1ccc(O)cc1O)nc1ccc3ccccc3c21",
    "targetSystem": "SW-620",
    "GI50": "> 100 µM (inactive)"
  },
  {
    "molecule": "O=C(Nc1ccc2oc(=O)c(C(=O)O)cc2c1)Oc1ccccc1",
    "targetSystem": "SW-620",
    "GI50": "> 100 µM (inactive)"
  },
  {
    "molecule": "CN(C)CCS/C(=N\\c1ccccc1)N1CCCCC1",
    "targetSystem": "SW-620",
    "GI50": "17.8 µM (inactive)"
  }
]

Exercise: GET /values?readout=GI50&item= CCOC(=O)C1=C(C)NC(=S)NC1c1cccc(O)c1 (stereo unspecified)
Solution: 44.3 µM (inactive)

Exercise: GET /values?readout=GI50&item= CC(=O)OCC(OC(C)=O)C(OC(C)=O)C(OC(C)=O)C(C=NN(C(C)=O)S(=O)(=O)c1ccc(/C=C2\NC(=O)N(C)C2=O)cc1)OC(C)=O (stereo unspecified)
Solution: 34.4 µM (inactive)

* * *

The entries below are paired with their reported GI50.
# Test system: T47D
# measurementNotes: NCI tumour cell line growth inhibition, 48 h
Calls of active or inactive are those of the source. Rule as the data show it: active = GI50 up to about 1.1 µM and inactive = higher.

Consider the reported GI50 for these compounds:
[
  {
    "compound": "CCOC(=O)c1csc(NC(=O)CN2CCCCC2)n1",
    "measurementName": "GI50",
    "resultValue": "> 100 µM (inactive)"
  },
  {
    "compound": "NCCCCNOCCCN",
    "measurementName": "GI50",
    "resultValue": "> 100 µM (inactive)"
  },
  {
    "compound": "CC(C)C[C@H]1[C@@H](OCc2ccccc2)COS(=O)N1[C@H](C)c1ccccc1 (some centres not stated)",
    "measurementName": "GI50",
    "resultValue": "9.55 µM (inactive)"
  },
  {
    "compound": "Cc1cc2c3c(c1)CCCN3CCC2",
    "measurementName": "GI50",
    "resultValue": "> 10 µM (inactive)"
  },
  {
    "compound": "COc1ccccc1NC(=O)C(=O)C(C#N)CC(C)(C)C=O (configuration not stated)",
    "measurementName": "GI50",
    "resultValue": "> 100 µM (inactive)"
  },
  {
    "compound": "Nc1nc(Nc2ccccc2)sc1C(=O)c1ccco1",
    "measurementName": "GI50",
    "resultValue": "14.9 µM (inactive)"
  }
]

// switching to the query compound
Exercise: GET /values?readout=GI50&item= COc1c(OC)c(OC)c2c(=O)c(OC)c(-c3ccc4c(c3)OCO4)oc2c1OC
Solution: 41.9 µM (inactive)

* * *

# System: LOX IMVI
# measurementNotes: NCI tumour cell line growth inhibition, 48 h
The source made the active and inactive calls. Cut-off read from the data, not from the text of the source: active = GI50 up to about 1.1 µM and inactive = higher.
Permitted responses: active, inactive

Would you please look over these solved cases?
[
  {
    "compound": "Cc1ccccc1NC(=O)CC1C(=O)Nc2ccccc2[S+]1[O-] (configuration not stated)",
    "targetSystem": "LOX IMVI",
    "group": "inactive"
  },
  {
    "compound": "CCC1(CC)C(=O)NN(C(=O)c2ccc(Cl)cc2)C1=O",
    "targetSystem": "LOX IMVI",
    "group": "inactive"
  },
  {
    "compound": "COc1cccc(C[C@H]2COC(=O)[C@]2(O)Cc2cccc(OC)c2)c1",
    "targetSystem": "LOX IMVI",
    "group": "inactive"
  },
  {
    "compound": "CSc1cc(C(C)(C)C)ccc1C(O)c1ccc(C(C)(C)C)cc1SC",
    "targetSystem": "LOX IMVI",
    "group": "inactive"
  },
  {
    "compound": "CCN(CC)CCN1C=CC(C)C(C(=O)O)C1C(N)=O (configuration not stated)",
    "targetSystem": "LOX IMVI",
    "group": "inactive"
  },
  {
    "compound": "CCCCCCCCOC(=O)c1cc([N+](=O)[O-])c(Sc2[nH]cnc3ncnc2-3)c([N+](=O)[O-])c1",
    "targetSystem": "LOX IMVI",
    "group": "active"
  },
  {
    "compound": "O=C1Nc2ccccc2/C1=C1/Nc2ccccc2/C1=N\\OCCOC1OCC(O)C(O)C1O (configuration not stated)",
    "targetSystem": "LOX IMVI",
    "group": "inactive"
  },
  {
    "compound": "COC(=O)/C=C1/OC(c2ccccc2)=C(Cl)C1=O",
    "targetSystem": "LOX IMVI",
    "group": "inactive"
  },
  {
    "compound": "Nc1nnc2oc3ccc4ccccc4c3cc1-2",
    "targetSystem": "LOX IMVI",
    "group": "inactive"
  },
  {
    "compound": "CCOC(=O)C1C(=O)C(C(=O)OCC)C(c2ccccc2)N(C)C1c1ccccc1 (configuration not stated)",
    "targetSystem": "LOX IMVI",
    "group": "inactive"
  }
]

Exercise: For Clc1ccc(-c2nnc3sc4nc5ccccc5c-4nn23)c(Cl)c1 , what call appears in the results of this test?
Solution: inactive

Exercise: For Cc1ccc(S(=O)(=O)/N=C(\NN)Nc2ccc(Cl)cc2)cc1 , what call appears in the results of this test?
Solution: inactive

* * *

The entries below are paired with their reported GI50.
# Test system: HOP-62
# measurementNotes: NCI tumour cell line growth inhibition, 48 h
The source made the active and inactive calls. Cut-off read from the data, not from the text of the source: active = GI50 up to about 1.1 µM and inactive = higher.

[
  {
    "compound": "Cc1ccc(C(=O)Nc2ccc(CP(=O)(O)O)cc2CP(=O)(O)O)cc1NC(=O)Nc1cc(C(=O)Nc2ccc(CP(=O)(O)O)cc2CP(=O)(O)O)ccc1C",
    "GI50": "> 100 µM (inactive)"
  },
  {
    "compound": "CC(=O)Nc1[nH]c(C#N)nc1C#N",
    "GI50": "> 100 µM (inactive)"
  },
  {
    "compound": "O=C(Nc1ccccc1F)c1cc2ccc(O)cc2o/c1=N\\c1cccc(F)c1",
    "GI50": "19 µM (inactive)"
  },
  {
    "compound": "CC(CS(=O)(=O)Cc1ccccc1)C(N)=O (configuration not stated)",
    "GI50": "> 100 µM (inactive)"
  },
  {
    "compound": "Cc1cccc(C(C)(C)C)c1NC(=O)CCl",
    "GI50": "> 100 µM (inactive)"
  }
]

Exercise: GET /values?readout=GI50&item= C1CSCCCSCCSCCCSC1
Solution: > 100 µM (inactive)

Exercise: GET /values?readout=GI50&item= C/C(=N\NC(=S)N1CCC(C2CCN(C(=S)N/N=C(\C)c3ccccn3)CC2)CC1)c1ccccn1
Solution: > 100 µM (inactive)

Exercise: GET /values?readout=GI50&item= Clc1ccc(C2N3CCCCC3[C@@H]3c4[nH]c5ccccc5c4CCN23)cc1 (some centres not stated)
Solution: > 100 µM (inactive)

Exercise: GET /values?readout=GI50&item= O=C1OC(=O)c2c1nc1ccccc1c2-c1ccccc1
Solution: > 100 µM (inactive)

Exercise: GET /values?readout=GI50&item= COc1c(-c2nc3ccc(N4CCN(C)CC4)cc3[nH]2)cc(OC)c2[nH]c(COC(C)=O)nc12
Solution: 67.1 µM (inactive)

Exercise: GET /values?readout=GI50&item= COC(=O)c1cccc2c3ccccc3c3ccccc3c12
Solution: > 100 µM (inactive)

Exercise: GET /values?readout=GI50&item= C[C@H](CCC(=O)NCC(=O)O)[C@H]1CC[C@H]2[C@@H]3[C@H](O)C[C@@H]4C[C@H](O)CC[C@]4(C)[C@H]3CC[C@]12C
Solution: > 100 µM (inactive)

Exercise: GET /values?readout=GI50&item= CC(C)C[C@H]1[C@@H](OCc2ccccc2)COS(=O)N1[C@H](C)c1ccccc1 (some centres not stated)
Solution: 19.1 µM (inactive)

Exercise: GET /values?readout=GI50&item= CC1(C)CN=C(Nc2ccc(F)c(Cl)c2)S1
Solution: > 100 µM (inactive)

Exercise: GET /values?readout=GI50&item= CCN(CC)/C(Sc1ccccc1)=C(\C(Cl)=C(Cl)Cl)[N+](=O)[O-]
Solution: 23.5 µM (inactive)

Exercise: GET /values?readout=GI50&item= COC(=O)/C=C1/OC(c2ccccc2)=C(Cl)C1=O
Solution: 25.9 µM (inactive)

Exercise: GET /values?readout=GI50&item= O=C(c1ccco1)N(C(=S)OC12CC3CC(CC(C3)C1)C2)c1ccccc1
Solution: 28.2 µM (inactive)

Exercise: GET /values?readout=GI50&item= CCOC(=O)C1=C(C)N(NC(=O)Nc2ccccc2)C2(N)N(NC(=O)Nc3ccccc3)C(C)=C(C(=O)OCC)C12C(=O)OCC (configuration not stated)
Solution: 28.6 µM (inactive)

Exercise: GET /values?readout=GI50&item= CN(C)CCC(=O)c1ccccc1
Solution: > 100 µM (inactive)

Exercise: GET /values?readout=GI50&item= N/C(=N\O)N/N=C/c1cccc(F)c1
Solution: 26.9 µM (inactive)

Exercise: GET /values?readout=GI50&item= CC(=O)N(CCc1ccccc1)C(C)(C#N)c1ccccc1 (configuration not stated)
Solution: > 100 µM (inactive)

Exercise: GET /values?readout=GI50&item= CN(C)CCNC(=O)c1cccc(CO)c1[N+](=O)[O-]
Solution: > 100 µM (inactive)

Exercise: GET /values?readout=GI50&item= CCn1c(=O)c2c3ccc(OC)cc3[nH]c2c2ccc(OC)cc21
Solution: 37.5 µM (inactive)

Exercise: GET /values?readout=GI50&item= S=C(Nc1ccc2c(c1)oc1ccccc12)c1cccnc1
Solution: 17.1 µM (inactive)

Exercise: GET /values?readout=GI50&item= CC(C)c1cccc(C(C)C)c1NC(=O)C(=O)C(C(=O)c1ccc2ccccc2c1)C1OC(=O)c2ccccc21 (configuration not stated)
Solution: 82.2 µM (inactive)

Exercise: GET /values?readout=GI50&item= COc1ccccc1/C=C/c1ccnc2ccccc12
Solution: 16.1 µM (inactive)

Exercise: GET /values?readout=GI50&item= Cc1ccc(-c2cc(-c3ccccc3)c(C#N)c(=O)[nH]2)cc1
Solution: > 100 µM (inactive)

Exercise: GET /values?readout=GI50&item= CSC(=S)N(C)NC(=O)c1cccc(C(=O)NN(C)C(=S)SC)n1
Solution: 17.1 µM (inactive)

Exercise: GET /values?readout=GI50&item= O=C1c2cc3c(cc2CC12Cc1cc4c(cc1C2=O)CCCC4)CCCC3
Solution: 24.2 µM (inactive)

Exercise: GET /values?readout=GI50&item= CN(C)CCS/C(=N\c1ccccc1)N1CCCCC1
Solution: > 100 µM (inactive)

Exercise: GET /values?readout=GI50&item= CCOC(=N)CC(=O)Nc1ccccc1
Solution: > 46.5 µM (inactive)

Exercise: GET /values?readout=GI50&item= CC(=O)OCC(=O)[C@@]12OC(C)(C)O[C@@H]1C[C@H]1[C@@H]3CC(C=O)=C4C=C(OCCCl)CC[C@]4(C)[C@@]3(F)[C@@H](O)C[C@@]12C
Solution: 24.8 µM (inactive)

Exercise: GET /values?readout=GI50&item= CCCCN(CCCC)C1(c2cc3ccccc3s2)CCCCC1.[O-][Cl+3]([O-])([O-])O
Solution: 15.1 µM (inactive)

Exercise: GET /values?readout=GI50&item= CC(=O)O[C@H]1C#C/C=C\C#CC[C@@H]2C(=O)N(C(=O)OC(C)(C)C)[C@@H]12
Solution: 7.11 µM (inactive)
